Every entry's value here was drawn from ChEMBL document CHEMBL2346593.

Each entry below carries its recorded Ratio Ki.
assay: Selectivity ratio of Ki for mouse CB2 receptor to Ki for rat CB1 receptor
Output: the number by itself.

# count of solved cases: 6
substance_smiles: CC1(C)Oc2cc(C34CC5CC(CC(C5)C3)C4)cc(O)c2[C@@H]2C[C@@H](CCO)CC[C@H]21
measured_attribute: Ratio Ki
numeric_value: 0.5

substance_smiles: CC1(C)Oc2cc(C34CC5CC(CC(C5)C3)C4)cc(O)c2[C@@H]2C[C@H](CI)CC[C@H]21
measured_attribute: Ratio Ki
numeric_value: 1.4

substance_smiles: CO/C=C\[C@@H]1CC[C@@H]2[C@@H](C1)c1c(O)cc(C34CC5CC(CC(C5)C3)C4)cc1OC2(C)C
measured_attribute: Ratio Ki
numeric_value: 2.9

substance_smiles: CC1(C)Oc2cc(C34CC5CC(CC(C5)C3)C4)cc(O)c2[C@@H]2C[C@@H](C=O)CC[C@H]21
measured_attribute: Ratio Ki
numeric_value: 0.4

substance_smiles: CC1(C)Oc2cc(C34CC5CC(CC(C5)C3)C4)cc(O)c2-c2cc(CO)ccc21
measured_attribute: Ratio Ki
numeric_value: 15.4

substance_smiles: CC1(C)Oc2cc(C34CC5CC(CC(C5)C3)C4)cc(O)c2[C@@H]2C[C@H](CC#N)CC[C@H]21
measured_attribute: Ratio Ki
numeric_value: 1.8

The molecule listed as `CC1(C)Oc2cc(C34CC5CC(CC(C5)C3)C4)cc(O)c2[C@@H]2C[C@H](CC=O)CC[C@H]21` shows Ratio Ki equal to 2.6

The molecule listed as `CC1(C)Oc2cc(C34CC5CC(CC(C5)C3)C4)cc(O)c2[C@@H]2C[C@H](CCO)CC[C@H]21` shows Ratio Ki equal to 4.5

The molecule listed as `CC1(C)Oc2cc(C34CC5CC(CC(C5)C3)C4)cc(O)c2[C@@H]2C[C@@H](CC=O)CC[C@H]21` shows Ratio Ki equal to 0.5

----------
Each entry below carries its recorded Ratio Ki.
assay: Selectivity ratio of Ki for mouse CB2 receptor to Ki for rat CB1 receptor
Output: the number by itself.

substance_smiles: CC1(C)Oc2cc(C34CC5CC(CC(C5)C3)C4)cc(O)c2[C@@H]2C[C@H](CO)CC[C@H]21
Ratio Ki: 2.5
//
substance_smiles: CC1(C)Oc2cc(C34CC5CC(CC(C5)C3)C4)cc(O)c2[C@@H]2C[C@H](C=O)CC[C@H]21
Ratio Ki: 0.5

Consider the record given below.
The compound listed as `CC1(C)Oc2cc(C34CC5CC(CC(C5)C3)C4)cc(O)c2-c2cc(O)ccc21` shows Ratio Ki equal to 2.8

----------
biological target: Cannabinoid receptor 1 (Rattus norvegicus, UniProt P20272); assay: Displacement of [3H]CP-55940 from rat CB1 receptor expressed in rat brain membrane by competitive binding assay; assay type: cell membranes
Sequence (P20272 whole entry): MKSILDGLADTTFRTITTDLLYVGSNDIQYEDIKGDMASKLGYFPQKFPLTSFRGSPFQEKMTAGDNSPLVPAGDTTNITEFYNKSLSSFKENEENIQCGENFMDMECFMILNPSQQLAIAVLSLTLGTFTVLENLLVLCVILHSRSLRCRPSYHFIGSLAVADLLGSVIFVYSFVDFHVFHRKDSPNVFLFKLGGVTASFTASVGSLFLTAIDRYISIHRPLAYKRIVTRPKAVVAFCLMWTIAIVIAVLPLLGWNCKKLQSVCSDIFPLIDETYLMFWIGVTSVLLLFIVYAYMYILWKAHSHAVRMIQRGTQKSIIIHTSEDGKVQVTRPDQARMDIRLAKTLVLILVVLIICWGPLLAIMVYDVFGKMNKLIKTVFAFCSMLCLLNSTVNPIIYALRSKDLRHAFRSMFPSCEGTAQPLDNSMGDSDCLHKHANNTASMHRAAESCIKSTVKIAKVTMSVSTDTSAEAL
measured_attribute: pKi
To interpret pKi, take it as minus log10 of a concentration measured in moles per litre.

# count of solved cases: 8
substance_smiles: CO/C=C\[C@@H]1CC[C@@H]2[C@@H](C1)c1c(O)cc(C34CC5CC(CC(C5)C3)C4)cc1OC2(C)C
measured_attribute: pKi
numeric_value: 7.51
//
substance_smiles: CC1(C)Oc2cc(C34CC5CC(CC(C5)C3)C4)cc(O)c2-c2cc(CO)ccc21
measured_attribute: pKi
numeric_value: 8.68
//
substance_smiles: CC1(C)Oc2cc(C34CC5CC(CC(C5)C3)C4)cc(O)c2[C@@H]2C[C@@H](CO)CC[C@H]21
measured_attribute: pKi
numeric_value: 7.52
//
substance_smiles: CC1(C)Oc2cc(C34CC5CC(CC(C5)C3)C4)cc(O)c2[C@@H]2C[C@@H](C=O)CC[C@H]21
measured_attribute: pKi
numeric_value: 7.32
//
substance_smiles: CC1(C)Oc2cc(C34CC5CC(CC(C5)C3)C4)cc(O)c2[C@@H]2C[C@H](C=O)CC[C@H]21
measured_attribute: pKi
numeric_value: 7.28
//
substance_smiles: CC1(C)Oc2cc(C34CC5CC(CC(C5)C3)C4)cc(O)c2[C@@H]2C[C@@H](O)CC[C@H]21
measured_attribute: pKi
numeric_value: 6.83
//
substance_smiles: CC1(C)Oc2cc(C34CC5CC(CC(C5)C3)C4)cc(O)c2[C@@H]2C[C@H](CI)CC[C@H]21
measured_attribute: pKi
numeric_value: 6.62
//
substance_smiles: CC(C)(C)C(=O)OCC1=CC[C@@H]2[C@@H](C1)c1c(O)cc(C34CC5CC(CC(C5)C3)C4)cc1OC2(C)C
measured_attribute: pKi
numeric_value: 7.78

The compound listed as `CC1(C)Oc2cc(C34CC5CC(CC(C5)C3)C4)cc(O)c2[C@@H]2C[C@H](CC=O)CC[C@H]21` shows pKi equal to 7.88

The compound listed as `CC1(C)Oc2cc(C34CC5CC(CC(C5)C3)C4)cc(O)c2[C@@H]2C[C@H](CC#N)CC[C@H]21` shows pKi equal to 7.31
